Molecular target: T1, nAra h 3 (peanut)
T1 construct: Bought natural allergen; also called naturally extracted Ara h 3
Assay: ELISA, antigen-coated plate
endpoint: EC50 (µg/mL)
Expressed in µg/mL, but write only the number.

binder: hm12G10 (antibody, V domains shown, also called 12G10 with mouse Fc; hmMAb 12G10) VH: EVQLLESGGRLLRPGGSLSLSCVASGFYFGDFGMSWVRQVPGKGLEWVSGIDWSGRSTGYVDSMKGRLTISRDNDKSSLYLQMNDLRGEDTAVYYCARVGRLCSGDSCDSMGAFDLWGQGTMVTVSS VL: DIQLTQSPSTLSASIGDSVTITCRASQNIDNWLAWYQQKPGKAPRLLIYKASSLGSGVSSKFRGSGFGTEFTLTITSLQPDDFATYYCQKSNGYSRTFGQGTKVDIK
EC50 [µg/mL]: 0.0368

binder: hm37D5 (antibody, V domains shown, also called 37D5 with mouse Fc; hmMAb 37D5) VH: EEQLVESGGRLLRPGESLSLSCAAVGFNFGDFGMAWVRQPPGKGLEWVAGINWSGHSTGFVDSMKGRLTISRDSAKSSLFLQMNSLRGEDTAVYYCARVGRLCSGDICDSMGAFDLWGQGTMVTVSS VL: DIQMTQSPSTLSASIGDRVTITCRASQTIDNWLAWYQQRPGKAPKLLIYQASSLQSGVSSRFRGSGSGTEFTLTITSLQPDDFATYYCQKSNGYSRTFGQGTKVEIK
EC50 [µg/mL]: 0.0723

## Task What does the record list as EC50 for h32B10 (antibody, V domains shown, Recombinant human IgG; also called hMAb 32B10) VH: QVQLVQSGAEVKKPGASVKVSCRASGYIFRNFDINWVRQATGQGLEWMGWMSPKSGDTGYAQKFQGRVTMTRDTSINTAYMELSSLTSEDSAVYYCARGVDGTNWGQGTRVTVSS VL: DIVMTQSPDSLGVSLGERATISCKSSQSILDNSNNKNFIAWFQQKPGQPPKLLIYWASARESGVPDRFSGSGSGTEFTLTINSLQAEDVAVYYCYQYYSTPHTFGQGTKLDLR ?
## Result 0.0049

## Task What does the record list as EC50 for h2F8 (antibody, V domains shown, Recombinant human IgG; also called hMAb 2F8) VH: EVQLVESGGGLVKPGGSLRLSCAASGFIFSDYNMNWVRQAPGKGLEWVSSITRSSRTIYYADSVKGRFTISRDNAKNSLHLQMNSLRDADTAVYYCAREDFDVSTGPYYMDVWGNGTTVIVSS VL: EIVLTQSPGTLSLSPGERATLSCRASQSVSNMFLVWYQQKPGQAPRLLMYGASTRATDIPDRFSGSGSGTDFTLTISRLEPEDFAVYYCQQNGNSPYTFGQGTKLEIK ?
## Result 0.0028
